Cited source: the supplement of paper PMC8149375

System: TK-10
Assay: GI50, drug alone; higher = less potent
Details: treatment: drug alone; 5 days
Entries get a class label from measured GI50, drug alone. See ranges: bottom range (below 100 nM), center range (100 nM to below 1000 nM), top range (1000 nM or more)

- Molecule: "COc1cc(Nc2ncc(F)c(Nc3ccc4c(n3)NC(=O)C(C)(C)O4)n2)cc(OC)c1OC.O=S(=O)(O)c1ccccc1 [R406]"
  Measured on: "TK-10"
  Category label: "top range"
- Molecule: "Nc1cccc2c1C(=O)N(C1CCC(=O)NC1=O)C2=O (centres undefined) [Pomalidomide]"
  Measured on: "TK-10"
  Category label: "top range"
- Molecule: "Cc1cnc(NC(=O)Nc2cc(Br)c(C)cc2OC[C@@H]2CNCCO2)cn1"
  Measured on: "TK-10"
  Category label: "center range"
- Molecule: "CN1CC[C@H](c2c(O)cc(O)c3c(=O)cc(-c4ccccc4Cl)oc23)[C@H](O)C1.Cl [Flavopiridol hydrochloride]"
  Measured on: "TK-10"
  Category label: "center range"

Class label required: COc1ccc(C2=NC(c3ccc(Cl)cc3)C(c3ccc(Cl)cc3)N2C(=O)N2CCNC(=O)C2)c(OC(C)C)c1 (centres undefined) [Nutlin-3]
top range

Given COc1ccc(-c2ccc3c(N4CCOC[C@@H]4C)nc(N4CCOC[C@@H]4C)nc3n2)cc1CO [AZD8055] , name the class its GI50, drug alone places it in.
bottom range

Hi, small favor: classify Cc1cn(-c2cc(NC(=O)c3ccc(C)c(Nc4nccc(-c5cccnc5)n4)c3)cc(C(F)(F)F)c2)cn1 [Nilotinib (AMN-107)] by its GI50, drug alone when you get a moment.
top range

// return the class label for O=C(c1ccc(/C=C/c2n[nH]c3ccccc23)cc1)N1CCNCC1 [KW 2449]
top range

Which class does COCC[n+]1c2c(n(Cc3cnccn3)c1C)C(=O)c1ccccc1C2=O [YM155] fall in?
bottom range

====

Property: minimum viability across doses; scope: individual compounds
System: 786-O
Assay: minimum viability across doses, drug + dasatinib, relative to DMSO (fraction); higher = less growth inhibition
Settings: treatment: drug + dasatinib (fixed dose, not stated); 5 days
Respond using a number only.

- Compound: "Cc1ccc(S(=O)(=O)Nc2nc3ccccc3nc2Nc2ccc3nsnc3c2)cc1 [XL147] + Cc1nc(Nc2ncc(C(=O)Nc3c(C)cccc3Cl)s2)cc(N2CCN(CCO)CC2)n1 [dasatinib]"
  minimum viability across doses: 0.642
- Compound: "C[C@@H]1CCN(C(=O)CC#N)C[C@@H]1N(C)c1ncnc2[nH]ccc12 + Cc1nc(Nc2ncc(C(=O)Nc3c(C)cccc3Cl)s2)cc(N2CCN(CCO)CC2)n1 [dasatinib]"
  minimum viability across doses: 0.743
- Compound: "CN1C(=O)C(Cc2c[nH]c3ccccc23)NC1=S (stereo not given) [Necrostatin-1] + Cc1nc(Nc2ncc(C(=O)Nc3c(C)cccc3Cl)s2)cc(N2CCN(CCO)CC2)n1 [dasatinib]"
  minimum viability across doses: 0.628
- Compound: "Nc1cccc(-c2cc3c(Oc4cccc(O)c4)ncnc3[nH]2)c1 [TWS119] + Cc1nc(Nc2ncc(C(=O)Nc3c(C)cccc3Cl)s2)cc(N2CCN(CCO)CC2)n1 [dasatinib]"
  minimum viability across doses: 0.288
- Compound: "CCCS(=O)(=O)Nc1ccc(F)c(C(=O)c2c[nH]c3ncc(-c4ccc(Cl)cc4)cc23)c1F [Vemurafenib (PLX4032)] + Cc1nc(Nc2ncc(C(=O)Nc3c(C)cccc3Cl)s2)cc(N2CCN(CCO)CC2)n1 [dasatinib]"
  minimum viability across doses: 0.326
- Compound: "CCS(=O)(=O)N1CC(CC#N)(n2cc(-c3ncnc4[nH]ccc34)cn2)C1 + Cc1nc(Nc2ncc(C(=O)Nc3c(C)cccc3Cl)s2)cc(N2CCN(CCO)CC2)n1 [dasatinib]"
  minimum viability across doses: 0.399
- Compound: "Cc1ccc(NC(=O)c2cccc(N(C)C)c2)cc1NC(=O)c1ccc(O)cc1 + Cc1nc(Nc2ncc(C(=O)Nc3c(C)cccc3Cl)s2)cc(N2CCN(CCO)CC2)n1 [dasatinib]"
  minimum viability across doses: 0.388
- Compound: "COC(=O)c1ccc2c(c1)NC(=O)/C2=C(\\Nc1ccc(N(C)C(=O)CN2CCN(C)CC2)cc1)c1ccccc1 [BIBF1120 (Vargatef)] + Cc1nc(Nc2ncc(C(=O)Nc3c(C)cccc3Cl)s2)cc(N2CCN(CCO)CC2)n1 [dasatinib]"
  minimum viability across doses: 0.694
- Compound: "O=C1CCC(N2C(=O)c3ccccc3C2=O)C(=O)N1 (stereo not given) [Thalidomide] + Cc1nc(Nc2ncc(C(=O)Nc3c(C)cccc3Cl)s2)cc(N2CCN(CCO)CC2)n1 [dasatinib]"
  minimum viability across doses: 0.556

Any idea what its minimum viability across doses is? The compound is CN1CCN(c2ccc3nc(-c4c(N)c5c(F)cccc5[nH]c4=O)[nH]c3c2)CC1 [Dovitinib (TKI-258)] + Cc1nc(Nc2ncc(C(=O)Nc3c(C)cccc3Cl)s2)cc(N2CCN(CCO)CC2)n1 [dasatinib]
0.263
